Entry source: ChEMBL document CHEMBL1201862

Test system: OVCAR-8
Assay: NCI tumour cell line growth inhibition, 48 h
Activity calls are given as the source filed them. Cut-off read from the data, not from the text of the source: active = GI50 up to about 1.1 µM and inactive = higher.
Select the correct class. Options are y for active, n for inactive and nothing else.

COc1ccc2nc3cccc([N+](=O)[O-])c3c(NCCN(C)C)c2c1 : y
O=c1[nH]nc(Cc2ccccc2)n1-n1cnnc1 : n
CCN(CC)C(=S)SNCc1ccc(S(N)(=O)=O)cc1 : n
COc1ccc(OC)c2[nH]c(Sc3c([N+](=O)[O-])ncn3C)nc12 : n
NC1(C(=O)O)CCC(C(=O)O)CC1 (stereo not drawn) : n

Tell me the recorded outcome of this test for `C=CCn1c2ccccc2c2c(C)c3cnccc3c(C)c21` . n

Hi, sorry to bother you, what did the test record for `CCCCCCCOc1ccc(/C=C\c2cc[n+](CCCCCCCC[n+]3ccc(/C=C\c4ccc(OCCCCCCC)cc4)cc3)cc2)cc1` ? n

Dear colleague, could you share the recorded outcome for `O=C1CCC[C@H]2O[C@@H](COCc3ccccc3)C[C@@H]12` when you have a moment? n

* * *

System: HOP-62
Assay: NCI tumour cell line growth inhibition, 48 h
Active and inactive are the calls of the source. Rule as the data show it: active = GI50 up to about 1.1 µM and inactive = higher.
Reported GI50 by item:

O=C1c2scc(-c3ccc(F)cc3)c2-n2cccc21 : 15.6 µM (inactive)

# input compound: `Nc1nc(Cl)c(CO)c(NCC2(CO)CCC2)n1` ; wanted: its GI50 > 100 µM (inactive)

Need GI50, item CCOC(=O)C(C)NC(=O)C(C)NC(=O)C(C)NC(=O)C(C)NC(=O)C(C)NC(=O)OCc1ccccc1 (stereo unspecified) > 100 µM (inactive)

Query (compound): `COc1ccc2nccc(SCC(=O)O)c2c1` ; field requested: GI50 > 100 µM (inactive)

Data request, read-out GI50, for Nc1nccc(-c2c[nH]c3cc(Br)ccc23)n1 [MERIDIANIN D] 30 µM (inactive)

Query: GI50; subject: `CC1=CCC[C@H]2[C@](C)(CC3=CC(=O)C(SCC(C)C)=CC3=O)[C@@H](C)CC[C@]12C` 14.6 µM (inactive)

* * *

System: MCF7
Experiment: NCI tumour cell line growth inhibition, 48 h
Calls of active or inactive are those of the source. Rule as the data show it: active = GI50 up to about 1.1 µM and inactive = higher.
Allowed answers: True = active, False = inactive

CCn1c(-c2ccc(/N=N/Nc3ccc(-c4n[nH]c(=S)n4CC)cc3)cc2)n[nH]c1=S : False

Test call, this compound: `CCOC(=O)c1c2c(n(Cc3ccccc3)c1C)C(=O)C(=O)c1ccccc1-2` True

Query: recorded result category for `NS(=O)(=O)c1ccc(NCc2cccc3c(=O)c4ccc(Cl)cc4oc23)cc1` in this test False

What outcome does the record of this test show for Cc1cc(-c2ccc(Cl)cc2)c(C#N)c(=S)n1C1OC(CO)C(O)C(O)C1O (stereo not given) ? False

Could you please tell me the result logged for O=c1c2nn[nH]c2nc2n1CC(c1ccccc1)S2 (stereo not given) in this assay? False

Entry C=C1CC=CC(C)(C)C1C/C=C(\C)C(O)CBr (stereo not given) : call = ? False

I would be grateful if you could indicate the recorded call for `S=C(c1c[nH]c2ccccc12)N1CCCCC1` . False

Would you mind telling me which call this test gave COC([C@@H](OC(=O)c1ccccc1)[C@H](OC(=O)c1ccccc1)C(O)COC(=O)c1ccccc1)n1cc(C)c(=O)[nH]c1=O (stereo not given in full) ? False

State the result this test recorded for CC1=CC2C(C(C)C)CC1C1C(=O)OC(=O)C21 (stereo not given) . False

For `C=CCOC(=O)/C(=C\c1ccc(OC)c(OC)c1)c1ccc(OC)c(OC)c1` , which call appears in the assay record? False

* * *

System: MDA-MB-435
Experiment: NCI tumour cell line growth inhibition, 48 h
Activity calls are given as the source filed them. Cut-off read from the data, not from the text of the source: active = GI50 up to about 1.1 µM and inactive = higher.
Listed next: entries and their corresponding GI50.

N=C(N)SC1c2ccccc2-c2cc([N+](=O)[O-])ccc21 (stereo unspecified) : 1.92 µM (inactive)
CC(C)N(CCCNc1c2ccccc2nc2cccc([N+](=O)[O-])c12)C(C)C : < 0.0125 µM (active)
CCCC(=O)[O-].[Na+] [SODIUM BUTYRATE] : 3470 µM (inactive)

For `O=[N+]([O-])c1ccc(O)c(/C=N/c2nc(-c3ccccc3)cs2)c1` , what is its reported GI50? 35.5 µM (inactive)

Fill in: GI50 of `CCOC(=O)c1c(N2CCCC2)nsc1Nc1ccc(F)cc1` is ___ 28.8 µM (inactive)

Quick one: GI50 for `COc1cccc([C@@H]2C/C(=N\NC(=O)C(=O)N[C@@H](C)c3ccccc3)c3cc4c(cc3N2)OCO4)c1` ? 2.28 µM (inactive)

Need GI50, item `Cc1cc2c(cc1Cl)Sc1nnc(C)n1S2(=O)=O` 13 µM (inactive)

GI50 lookup needed for `CCOC(=O)NC(=S)c1ccc(O)c2ccccc12` , thanks. 40.7 µM (inactive)

GI50 for `NS(=O)(=O)c1ccc(NC(=O)c2cccc3cc4ccccc4nc23)cc1` ? 34.3 µM (inactive)

Look at this compound and give its reported GI50. `C[C@@H]1C(=O)C[C@H]2C(C)(C)CCC[C@]2(C)[C@@]1(O)CCc1ccoc1` > 100 µM (inactive)

Which value of GI50 has been reported for `Cn1cnc(/C=C/C#N)c1` in the records? > 100 µM (inactive)

* * *

System: UACC-257
Assay: NCI tumour cell line growth inhibition, 48 h
Calls of active or inactive are those of the source. Rule as the data show it: active = GI50 up to about 1.1 µM and inactive = higher.
Experimental endpoint: GI50

The cases that follow already have their GI50 on record.
NC(=S)NN=C1Cc2ccccc2C1 : > 100 µM (inactive)
CC(C)(C)OC(=O)CN1CCNCCN(CC(=O)OC(C)(C)C)CC1 : > 100 µM (inactive)

Recorded GI50 for `O=C(/C=C/c1ccc2ccccc2c1)NCc1ccc(C(=O)NCc2ccccc2)cc1` , please? > 100 µM (inactive)

Data request, read-out GI50, for COc1cc(/C=C2/SC(c3ccccc3)N(c3cc(Cl)ccc3Cl)C2=O)cc(OC)c1OC (stereo not given) > 100 µM (inactive)

# get_value(readout='GI50', item= `O=c1c2ccccc2nc2n1-c1ccccc1SC2` ) 39.4 µM (inactive)

* * *

Tested on: SN12C
Test: NCI tumour cell line growth inhibition, 48 h
Active and inactive are the calls of the source. No stated cut-off is given here; in the data, active = GI50 up to about 1.1 µM and inactive = higher.
GI50 overview

Please review the following examples before continuing.
COc1nc2ccc(COc3ccc(C(=O)O)cc3)cc2nc1OC : > 100 µM (inactive)
C[n+]1cn(C2=C([N-]S(=O)(=O)c3ccccc3)C(=O)c3ccccc3C2=O)c2ccccc21 : 31.3 µM (inactive)
Cn1c(-c2ccccc2)c/c(=N\NS(C)(=O)=O)c2cc(S(=O)(=O)O)ccc21 : > 100 µM (inactive)

Param item = CSc1ccc(C2C(Cl)C(=O)N2NC(=O)c2c(Cl)c(Cl)c(Cl)c(Cl)c2-c2nc3ccccc3[nH]2)cc1 (stereo unspecified) ; retrieve measured GI50. 15.8 µM (inactive)

Which GI50 is listed for `CC1(C)C(=O)C(C)(C)C1=NNC(N)=S` ? > 100 µM (inactive)

What value of measured GI50 is listed for `CN(C)CCn1cnc2sc3ccccc3c21` ? > 100 µM (inactive)

Record request: GI50 value, item `O=C(O)c1ccc(/C=N\N(CCO)C2=NCCN2)cc1` > 100 µM (inactive)

Fill in the blank: the reported GI50 of `NCCCN1CCN(CCCNc2ccc3ncn4c5ccccc5c(=O)c2c34)CC1` is ____. 0.826 µM (active)

* * *

Test system: MCF7
Assay: NCI tumour cell line growth inhibition, 48 h
The source made the active and inactive calls. Cut-off read from the data, not from the text of the source: active = GI50 up to about 1.1 µM and inactive = higher.
Experimental endpoint: GI50

// below: answered compounds
COCCOCCOCCC(=O)NC1CC2CCC1(C)C2(C)C (stereo not drawn) : > 100 µM (inactive)
COC1=N[C@H](C(C)C)C(OC)=N[C@H]1Cc1ccc(C[C@@H]2N=C(OC)[C@@H](C(C)C)N=C2OC)s1 : 20.3 µM (inactive)

# evaluate next
Requested field: GI50. Item: CO[C@]12CC(=O)C3(C(C[C@H]4CC5CCC6=CC(=O)CC[C@]6(OC(C)=O)C5C[C@@]43C)C1)C1C[C@H]3[C@@H]4CCC5=CC(=O)CC[C@]5(OC(C)=O)[C@H]4CC[C@]3(C)C12 (stereo partly drawn) > 100 µM (inactive)

* * *

Test system: NCI-H23
Test: NCI tumour cell line growth inhibition, 48 h
Calls of active or inactive are those of the source. Cut-off read from the data, not from the text of the source: active = GI50 up to about 1.1 µM and inactive = higher.
Give one outcome, nothing more. List: active, inactive

Worked cases, answers included:
CC1=CC2C(C(C)C)CC1C1C(=O)OC(=O)C21 (configuration not stated) : inactive
NC1(C(=O)O)CCC(C(=O)O)CC1 (configuration not stated) : inactive

Hello, I am checking results. What call was entered for CC(C)(SCc1ccccc1)C(N)C(=O)O (configuration not stated) ? inactive

Identify the outcome logged in this assay for the compound shown: `OCN(CO)c1ccc2c(c1)Cc1cc(F)ccc1-2` inactive

I'd appreciate the recorded outcome for `N#CN1CCC=C(c2cc3ccccc3[nH]2)C1` from this test. inactive
